Biological target: T1, cynomolgus monkey (cyno) TSLP (cynomolgus monkey, UniProt A0A7N9CAT7 29-159)
T1 construct: also called cTSLP; cynomolgus TSLP
T1 sequence (A0A7N9CAT7 entry or part of it): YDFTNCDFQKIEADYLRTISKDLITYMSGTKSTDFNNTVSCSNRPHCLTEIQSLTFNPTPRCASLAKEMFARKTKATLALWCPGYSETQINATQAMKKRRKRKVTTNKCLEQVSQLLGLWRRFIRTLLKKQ
Assay: SPR
Below is a list of entries, each paired with its recorded koff value.
readout.kind: koff

>>> result("BDG38.076 (antibody, V domains shown, IgG1) VH: QMQLVESGGGVVQPGRSLRLSCAASGFAFRTYGMHWVRQAPGKGLEWVAVIWDDGSATHYADSVKGRFTITRDNSKNTLNLQMNSLRAEDTAVYYCVRAPQWYLTAEAFDLWGQGTMVTVSS VL: SYVLTQPPSVSVAPGETASITCGGNMIGGYLVHWYQQKPGQAPLLVIYDDVDRPARIPERFSGSNSGNTATLTISRVEAGDEADYYCQVWDHDTNHMVFGGGTKLTVL")
"3.99e-08 s⁻¹"
>>> result("BDG38.129 (antibody, V domains shown, IgG1) VH: QMQLVESGGGVVQPGRSLTLSCAASGFEFRTYGMHWVRQAPGKGLEWVGVIWDDGSNTHYADSVKGRFTITRDNSKNTLNLQMNSLRVEDTAVYYCARAPQWYLTAEAFDLWGQGTMVTVSS VL: SYILTQPPSVSVAPGQTATITCGGNLIGAKLVHWYQQKPGQAPVLVIYDDSDRPSRIPERFSGSNIGNTATLTISDVEEGDEADYYCQVWDYSSDHMVFGGGTKLTVL")
"5.27e-05 s⁻¹"
>>> result("BDG38.096 (antibody, V domains shown, IgG1) VH: QMQLVESGGGVVQPGRSLRLSCAASGFEFRTYGMHWVRQAPGKGLEWVAVIWDDGSNTHYADSVKGRFTITRDNSKNTLNLQMNSLRVEDTAVYYCVRAPQWYLTAEAFDLWGQGTMVTVSS VL: SYILTQPPSVSVAPGETARITCGGNLIGARLVHWYQQKPGQAPVLVIYDDSDRPSRIPERFSGSNIGNTATLTISRVEEGDEADYYCQVWDYSSDSMVFGGGTKLTVL")
"6.14e-05 s⁻¹"
